Molecular target: T1, IL-7 receptor (IL-7Rα/γc heterodimer) on primary human T cells (human, UniProt P16871 21-459; P31785 23-369)
T1 sequence (looked up) 1: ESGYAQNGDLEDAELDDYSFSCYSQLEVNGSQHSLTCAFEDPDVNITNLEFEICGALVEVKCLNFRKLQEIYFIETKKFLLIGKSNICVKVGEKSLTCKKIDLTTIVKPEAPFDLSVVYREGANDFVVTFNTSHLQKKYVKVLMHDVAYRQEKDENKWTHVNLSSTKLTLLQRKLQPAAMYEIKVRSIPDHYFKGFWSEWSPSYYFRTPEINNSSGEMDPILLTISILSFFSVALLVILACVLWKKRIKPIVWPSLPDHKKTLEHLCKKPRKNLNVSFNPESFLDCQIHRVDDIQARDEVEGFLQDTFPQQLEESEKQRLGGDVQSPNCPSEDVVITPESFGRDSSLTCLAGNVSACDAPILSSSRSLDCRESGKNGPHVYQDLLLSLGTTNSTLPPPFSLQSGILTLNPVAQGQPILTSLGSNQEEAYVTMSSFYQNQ
T1 sequence (looked up) 2: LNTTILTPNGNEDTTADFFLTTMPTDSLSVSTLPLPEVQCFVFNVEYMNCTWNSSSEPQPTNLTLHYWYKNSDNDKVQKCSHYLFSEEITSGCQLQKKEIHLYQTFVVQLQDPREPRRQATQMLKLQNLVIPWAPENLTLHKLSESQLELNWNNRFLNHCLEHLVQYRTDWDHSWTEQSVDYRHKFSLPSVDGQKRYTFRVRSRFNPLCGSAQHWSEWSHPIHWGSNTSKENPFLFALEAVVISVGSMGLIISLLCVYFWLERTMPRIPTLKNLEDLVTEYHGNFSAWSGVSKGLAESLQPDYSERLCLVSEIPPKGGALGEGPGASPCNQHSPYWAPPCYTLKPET
Test: cell-based or functional assay
Bridges are numbered along the chain shown (N, C = ends). [ ]: non-standard residue; d: D form. glutaryl‑PEG9‑azide = glutaryl-PEG9-azide group on the N-terminal amine; hSer = N[C@@H](CCO)C(=O)O; Nle = CCCC[C@H](N)C(=O)O
# maps each entry to its EC50 pSTAT5, CD8 Naive

{"columns": ["binder", "unit text", "EC50 pSTAT5, CD8 Naive"],
 "data": [
  ["CMP-036, synthetic IL-7 of SEQ ID NO: 3 (no N-terminal conjugation handle) (ligand, ends and bridges not checked) DCDIEGKDGKQYESVL[Nle]VSIDQLLDS[Nle]KEIGSNCL[hSer]NEFNFFKRHICDANKEG[Nle]FLFRAARKLRQFLK[Nle]NSTGDF[hSer]LHLLKVSEGTTILLNCTGQVKGRKPAALGEAQPTKSL[hSer]ENKSLKEQKKLNDLCFLKRLLQEIKTCWNKIL[Nle]GTKEH", "pM", 6],
  ["CMP-035, recombinant human native IL-7 with His-tag (ligand, also called WT IL-7 His; recombinant IL-7 (WT)) DCDIEGKDGKQYESVLMVSIDQLLDSMKEIGSNCLNNEFNFFKRHICDANKEGMFLFRAARKLRQFLKMNSTGDFDLHLLKVSEGTTILLNCTGQVKGRKPAALGEAQPTKSLEENKSLKEQKKLNDLCFLKRLLQEIKTCWNKILMGTKEHVDHHHHHH", "pM", 2],
  ["CMP-114, CMP-108 conjugated to 30 kDa DBCO PEG at the N-terminus (ligand, disulfide 34-129, 47-141, 2-92; not fully specified (N-terminus); also: N-terminal azide conjugated to 30 kDa DBCO-PEG) DCDIEGKDGKQYESVL[Nle]VSIDQLLDS[Nle]KEIGSNCL[hSer]NEFNFFKRHICDANKEG[Nle]FLFRAARKLRQFLK[Nle]NSTGDF[hSer]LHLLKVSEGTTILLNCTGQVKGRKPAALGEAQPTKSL[hSer]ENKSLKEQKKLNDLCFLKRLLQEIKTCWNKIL[Nle]GTKEH-NH2", "pM", 5],
  ["CMP-107, synthetic IL-7 V15W of SEQ ID NO: 5 with glutaryl-PEG9-azide at the N-terminus (ligand, disulfide 34-129, 47-141, 2-92, also called synthetic IL-7 with V15W) {glutaryl‑PEG9‑azide}-DCDIEGKDGKQYESWL[Nle]VSIDQLLDS[Nle]KEIGSNCL[hSer]NEFNFFKRHICDANKEG[Nle]FLFRAARKLRQFLK[Nle]NSTGDF[hSer]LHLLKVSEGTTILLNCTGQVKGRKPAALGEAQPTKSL[hSer]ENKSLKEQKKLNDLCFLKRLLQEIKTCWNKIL[Nle]GTKEH-NH2", "pM", 6]
]}
